# Test system: MOLT-4 leukemia
# protocol_details: NCI-60 one-dose screen, 48 h (100 = growth as untreated, 0 = no growth, -100 = all killed)
# reported_conditions: 10 µM unless noted
About 83,000 compounds went through this panel and 20% of them were active in at least one assay; those are over-represented in the sample as a whole. Activity calls are given as the source filed them. Rule for the calls: active = growth percent below 10; inactive = the rest.

# molecule, growth
measured = [
    ("C[N+]12CCC34C5=CC(=O)C(=O)C=C5[N+]5(C)C(=O)CC6OCC=C(C1)C(CC32)C6C45 (configuration not stated)", "102% (inactive)"),
    ("CNC(=O)O/N=C(\\SC)C(=O)N(C)C", "86.5% (inactive)"),
    ("CC1=C2[C@H]3OC(=O)[C@@H](C)[C@@H]3CC[C@@]2(C)C=CC1=O", "104% (inactive)"),
    ("C[C@H](O)CCC(=O)c1ccoc1", "98.2% (inactive)"),
    ("Cc1cc[c-]cc1.Fc1c[c-]c(-c2ccccn2)c(F)c1.[Pt+2].c1ccc([PH+](c2ccccc2)c2ccccn2)cc1", "26% (inactive)"),
    ("Nc1ccc(S(=O)(=O)F)cc1", "93.3% (inactive)"),
    ("NC1CN2CCC1CC2 (configuration not stated)", "97.8% (inactive)"),
    ("CC1(C)S[C@H]2CC[C@H]3OC(=O)[C@@H]1N23", "75.1% (inactive)"),
    ("Cc1cc2c(cc1-c1ccnc(/C=C/C(=O)O)c1)C(C)(C)CCC2(C)C", "91.9% (inactive)"),
    ("O=P(O)(Nc1ccccc1)Nc1ccccc1", "43.6% (inactive)"),
    ("COc1cc(/C=C\\[N+](=O)[O-])ccc1OCc1ccccc1", "1.1% (active)"),
    ("CCC(Br)(CC)C(=O)NC(N)=O", "99.2% (inactive)"),
    ("O=C(O)c1ccccc1N(CCO)CCCl", "98.3% (inactive)"),
    ("Cc1cc(NC(=O)NCCCOc2ccc(N3C(N)=NC(N)=NC3(C)C)cc2Cl)ccc1S(=O)(=O)F", "37.5% (inactive)"),
    ("C/C(=N/OC(=O)N(C)C)c1ccc(Cl)c(Cl)c1", "86.3% (inactive)"),
    ("C/C(=C\\c1ccn(-c2ccc(N)c(C(F)(F)F)c2)n1)[C@@H]1C[C@@H]2O[C@]2(C)CCC[C@H](C)[C@H](O)[C@@H](C)C(=O)C(C)(C)[C@@H](O)CC(=O)O1", "10.2% (inactive)"),
    ("CCCn1cc2c3c(cccc31)[C@H]1C[C@@H](C)CN(C)[C@@H]1C2", "77.6% (inactive)"),
    ("N#Cc1ccc(Cl)cc1", "92.5% (inactive)"),
    ("Cc1nnc([S-])o1.[Au+].c1ccc([PH+](c2ccccc2)c2ccccc2)cc1", "38.6% (inactive)"),
    ("O=P1(N(CCCl)CCCl)NCCCO1 (configuration not stated)", "96.8% (inactive)"),
    ("C[C@]12CCc3sc(Nc4ccc(F)cc4)nc3C1=CC[C@@H]1[C@@H]2CC[C@]2(C)C(=O)CC[C@@H]12", "15.8% (inactive)"),
    ("COc1ccc2c(c1)c(-c1nc(-c3c[nH]c4ncccc34)cs1)cn2CCCCN1CCOCC1", "-21% (active)"),
]
